target: Tubulin (Sus scrofa) (UniProt P02554+P02550); test: Inhibition of tubulin polymerization in porcine brain at 20 uM
Sequence (P02550 whole entry, looked up): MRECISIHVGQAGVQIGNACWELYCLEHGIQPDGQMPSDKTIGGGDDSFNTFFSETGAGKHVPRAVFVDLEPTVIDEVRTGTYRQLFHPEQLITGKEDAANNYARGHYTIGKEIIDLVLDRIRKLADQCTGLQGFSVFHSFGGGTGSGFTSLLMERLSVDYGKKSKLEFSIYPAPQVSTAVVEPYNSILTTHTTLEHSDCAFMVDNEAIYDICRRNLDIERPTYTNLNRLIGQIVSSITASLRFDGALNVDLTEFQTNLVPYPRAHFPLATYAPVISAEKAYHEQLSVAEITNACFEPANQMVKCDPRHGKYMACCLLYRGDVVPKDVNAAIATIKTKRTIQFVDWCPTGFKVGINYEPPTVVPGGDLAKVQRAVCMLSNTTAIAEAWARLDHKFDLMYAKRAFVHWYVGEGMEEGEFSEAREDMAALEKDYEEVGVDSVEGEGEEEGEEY
Sequence (P02554 whole entry, looked up): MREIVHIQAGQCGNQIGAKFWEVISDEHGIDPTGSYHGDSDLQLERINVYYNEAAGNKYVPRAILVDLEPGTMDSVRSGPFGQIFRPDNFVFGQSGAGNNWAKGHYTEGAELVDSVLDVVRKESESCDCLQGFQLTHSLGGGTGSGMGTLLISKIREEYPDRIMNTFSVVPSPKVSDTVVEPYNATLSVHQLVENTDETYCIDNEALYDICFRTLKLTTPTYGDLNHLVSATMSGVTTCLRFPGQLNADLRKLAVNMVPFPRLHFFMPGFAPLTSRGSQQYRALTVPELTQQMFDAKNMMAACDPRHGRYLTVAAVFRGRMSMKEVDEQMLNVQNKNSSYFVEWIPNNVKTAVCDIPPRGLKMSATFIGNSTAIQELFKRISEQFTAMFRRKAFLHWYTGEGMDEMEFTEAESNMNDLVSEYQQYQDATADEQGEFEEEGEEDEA
Readout name: inhibition (%)

[A] CC(C)c1ccc([N+](=O)[O-])c(C(C)C)c1N1C(=O)c2c(F)c(F)c(F)c(F)c2C1=O
[B] Cc1cccc(C)c1N1C(=O)c2c(Cl)c(Cl)c(Cl)c(Cl)c2C1=O
In: For the pair A and B , which member has the lower inhibition number? Answer by quoting the chosen item's label.
Out: B

[P] CC(C)c1cccc(C(C)C)c1N1C(=O)c2cc(F)c(F)cc2C1=O
[Q] CC(C)c1cccc(C(C)C)c1N1C(=O)c2c(F)ccc(F)c2C1=O
In: Between the entries labelled P and Q , which has a larger inhibition value on record? Answer by quoting the chosen item's label.
Out: Q

[A] CC(C)c1ccccc1N1C(=O)c2c(F)c(F)c(F)c(F)c2C1=O
[B] O=C1c2c(Cl)c(Cl)c(Cl)c(Cl)c2C(=O)N1c1ccccc1
In: For the pair A and B , which member has the lower inhibition number? Answer by quoting the chosen item's label.
Out: B

[P] CC(C)c1cc(Br)cc(C(C)C)c1N1C(=O)c2c(F)c(F)c(F)c(F)c2C1=O
[Q] CC(C)c1cccc(C(C)C)c1N1C(=O)c2cccc(F)c2C1=O
In: Between the entries labelled P and Q , which has a larger inhibition value on record? Answer by quoting the chosen item's label.
Out: Q

###

biological target: Tubulin (Sus scrofa) (UniProt P02554+P02550); test: Inhibition of tubulin polymerization in porcine brain at 20 uM
Readout name: inhibition (%)

[P] CCCc1cccc(CCC)c1N1C(=O)c2c(Cl)c(Cl)c(Cl)c(Cl)c2C1=O
[Q] Cc1cccc(C)c1N1C(=O)c2c(F)c(F)c(F)c(F)c2C1=O
[R] CC(C)c1cccc(C(C)C)c1N1C(=O)c2ccccc2C1=O
[S] CC(C)c1cccc(C(C)C)c1N1C(=O)c2c(F)c(F)c(F)c(F)c2C1=O
[T] O=C1c2c(F)c(F)c(F)c(F)c2C(=O)N1c1ccccc1
In: Order them by inhibition, ascending: the compounds above. Answer format: list of labels, ordered as asked.
Out: P, R, T, Q, S

[a] CC(C)c1cccc(C(C)C)c1N1C(=O)c2ccc(F)cc2C1=O
[b] CCc1cccc(CC)c1N1C(=O)c2c(F)c(F)c(F)c(F)c2C1=O
In: Between the entries labelled a and b , which has a larger inhibition value on record? Answer by quoting the chosen item's label.
Out: b
